B1: TPPP (parent)
chain: LCKDCQVIDGRNVTVTDVDIVFSK

Variants of: B1
procedure_text: protein stability index of a GFP-peptide fusion (GPS, HEK-293T) (PSI 1-6); higher = more stable;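 note: lentivirally expressed fusions sorted by FACS into six bins by GFP to DsRed ratio, PSI derived from sequencing read proportions per bin multiplied by bin number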
measurement_setup: c terminus: a fixed tail appended
So basically, the class depends on measured protein stability index, and the ranges are low (below 2), medium (2 to below 3), high (3 or more)

residues=LCKDCMVIDGRNVTVTDVDIVFSK answer_label=medium
residues=LCKDCQVIDGRNVTVTDVDIVFLK answer_label=low
residues=LCKDCQVIDGRNVTVTDVDILFSK answer_label=medium
residues=MCKDCQVIDGRNVTVTDVDIVFSK answer_label=medium
residues=LCKDCQVIDGRNVTVPDVDIVFSK answer_label=medium
residues=LCKDCQVIDGRNVDVTDVDIVFSK answer_label=medium
residues=LCKDCQVIDGRNVTVTDVDIVFHK answer_label=high
residues=LCKDCQVISGRNVTVTDVDIVFSK answer_label=medium
residues=ACKDCQVIDGRNVTVTDVDIVFSK answer_label=medium
residues=LCKDCQLIDGRNVTVTDVDIVFSK answer_label=medium
residues=LCKDCQVIVGRNVTVTDVDIVFSK answer_label=low
residues=FCKDCQVIDGRNVTVTDVDIVFSK answer_label=medium
residues=LCKDCQVIDVRNVTVTDVDIVFSK answer_label=medium
residues=LCKDCQVIDGRNVTVTDVDIEFSK answer_label=high
residues=LCKDCQVIDGRNVTVTDVDIVDSK answer_label=high
residues=LCKDCQVIDGRNVTVTDKDIVFSK answer_label=medium
residues=LCKDCQVIDGRNVTVTDVDIVFSR answer_label=medium
residues=LCKDCQVIDGRNVTVTDVEIVFSK answer_label=low
residues=LCKDCQVIDGRNVTVTDVDIVFMK answer_label=low
residues=LCKYCQVIDGRNVTVTDVDIVFSK answer_label=low
residues=LCKDCQVIDGRNVTVTDVDGVFSK answer_label=high
residues=LCKDCQVIDGRNETVTDVDIVFSK answer_label=high
residues=LCKDCQVIDGRRVTVTDVDIVFSK answer_label=medium
residues=LCKDCQVIDGRNVMVTDVDIVFSK answer_label=low
residues=LCKDCQVIDGRNVTVWDVDIVFSK answer_label=low
residues=LCKDCQVIDGRNVVVTDVDIVFSK answer_label=low
residues=LCRDCQVIDGRNVTVTDVDIVFSK answer_label=medium
residues=LCKDCQVIWGRNVTVTDVDIVFSK answer_label=low
residues=LCKDCQVIDGRNVTVTDWDIVFSK answer_label=medium
residues=LCKDCQVIDGRNVTVTDVDCVFSK answer_label=medium
residues=LCKECQVIDGRNVTVTDVDIVFSK answer_label=medium
residues=ECKDCQVIDGRNVTVTDVDIVFSK answer_label=high
residues=LCKDCQVIDGRNSTVTDVDIVFSK answer_label=high
residues=LCKDCQVIDGRNVTVTDVDIVMSK answer_label=high
residues=LCKDCQVIDGREVTVTDVDIVFSK answer_label=high
residues=LYKDCQVIDGRNVTVTDVDIVFSK answer_label=medium
residues=LCKDCQVIDGRNVTVTDNDIVFSK answer_label=high
residues=RCKDCQVIDGRNVTVTDVDIVFSK answer_label=low
residues=LCKDCQVIDGQNVTVTDVDIVFSK answer_label=medium
residues=LCKDCQVIDGRNVTVTDVSIVFSK answer_label=medium
residues=LCKDCQVIDGRNVTVYDVDIVFSK answer_label=low
residues=LCKDPQVIDGRNVTVTDVDIVFSK answer_label=high
residues=LCKDWQVIDGRNVTVTDVDIVFSK answer_label=medium
residues=LCKDCQVIDGRNQTVTDVDIVFSK answer_label=medium
residues=LCKDCQVIDGRNVTVTSVDIVFSK answer_label=low
residues=LCKDCQVIDGRNNTVTDVDIVFSK answer_label=medium
residues=LCKDCQVIDGRNVTVTDVDIVFKK answer_label=high

Cited source for all entries: the supplement of paper PMC10567573
